System: Poliovirus 3
assay-name: Antiviral activity against human poliovirus 3 infected in human HeLa cells assessed as reduction in virus-induced cytopathicity incubated for 3 days by MTT assay
Assay type: functional, cell-based
condition-details: Enterovirus C, 72 h
Give pEC50 for every item shown.
Answers are plain numbers, as −log10 of the molar value.

For each of the items listed, what is its pEC50?
1. Cc1ccccc1-n1c(=O)c2c3c(sc2n2cnnc12)CC(C(C)(C)C)CC3 (stereo not drawn)
2. CC(C)(C)C1CCc2c(sc3c2c(=O)n(-c2ccc(Cl)cc2)c2nncn32)C1 (stereo not drawn)

[5.46, 5.08]

----------
assay-name: Cytotoxicity in human HeLa cells assessed as reduction in cell viability incubated for 3 days by MTT assay
Format: cell-based
readout-label: CC50 at 72 h

Please review the entries below; each comes with its answer.
{"molecule": "Cc1nnc2n(-c3ccccc3)c(=O)c3c4c(sc3n12)CC(C(C)(C)C)CC4 (stereo not given)", "CC50 at 72 h": "45.1 µM"}
{"molecule": "CC(C)(C)C1CCc2c(sc3c2c(=O)n(-c2ccccc2)c2nnc(-c4ccccc4)n32)C1 (stereo not given)", "CC50 at 72 h": "31.9 µM"}

// batch mode: one CC50 at 72 h value per listed entry
1. CC1CCc2c(sc3c2c(=O)n(-c2ccccc2)c2nncn32)C1 (stereo not given)
2. O=c1c2c3c(sc2n2cnnc2n1-c1ccccc1)CC(c1ccccc1)CC3 (stereo not given)
3. O=c1c2c3c(sc2n2cnnc2n1-c1ccccc1)CCCC3

1: 79 µM; 2: 27.5 µM; 3: > 100 µM

----------
Tested on: Poliovirus 3
assay-name: Antiviral activity against human poliovirus 3 infected in human HeLa cells assessed as reduction in virus-induced cytopathicity incubated for 3 days by MTT assay
Assay type: functional, cell-based
condition-details: Enterovirus C, 72 h
readout-label: pEC50
Numbers only, as −log10 of the molar value.

{"compound": "CC(C)(C)C1CCc2c(sc3c2c(=O)n(-c2ccccc2Cl)c2nncn32)C1 (stereo not given)", "pEC50": 5.74}

Give measured pEC50 for every item shown.
1. CC(C)(C)C1CCc2c(sc3c2c(=O)n(-c2ccc(Br)cc2)c2nncn32)C1 (stereo not given)
2. Cc1ccc(-n2c(=O)c3c4c(sc3n3cnnc23)CC(C(C)(C)C)CC4)cc1 (stereo not given)
3. Cc1cc(CCCOc2c(C)cc(-c3noc(C(F)(F)F)n3)cc2C)on1
4. CC(C)(C)C1CCc2c(sc3c2c(=O)n(-c2ccccc2)c2nncn32)C1 (stereo not given)
5. CC(C)(C)C1CCc2c(sc3c2c(=O)n(-c2cccc(Cl)c2)c2nncn32)C1 (stereo not given)
6. Cc1ccc(-c2ccc(-n3c(=O)c4c5c(sc4n4cnnc34)CC(C(C)(C)C)CC5)cc2)cc1 (stereo not given)
7. CCCC1CCc2c(sc3c2c(=O)n(-c2ccccc2)c2nncn32)C1 (stereo not given)

[4.90, 5.71, 6.29, 5.71, 5.02, 4.33, 4.70]

For every record below, what is its pEC50?
1. COc1ccc(-n2c(=O)c3c4c(sc3n3cnnc23)CC(C(C)(C)C)CC4)cc1 (stereo not given)
2. CC(C)(C)C1CCc2c(sc3c2c(=O)n(-c2cccc(Br)c2)c2nncn32)C1 (stereo not given)

1: 5.44; 2: 4.88

----------
assay-name: Selectivity index, ratio of CC50 for human HeLa cells to EC50 for human coxsackievirus B1 infected in human HeLa cells
Type: toxicity, cell-based
condition-details: read-out: Ratio CC50/EC50
readout-label: selectivity ratio

Can you share its selectivity ratio? I mean this compound: CC(C)(C)C1CCc2c(sc3c2c(=O)n(-c2ccccc2)c2nncn32)C1 (stereo unspecified)
> 11.2

----------
Tested on: Coxsackievirus B3
assay-name: Antiviral activity against human coxsackievirus B3 infected in human HeLa cells assessed as reduction in virus-induced cytopathicity incubated for 3 days by MTT assay
Assay type: functional, cell-based
condition-details: Enterovirus B, 72 h
Assignment: determine reported EC50 for the given molecules.

Recorded EC50, per entry:
{"molecule": "CC1CCCc2sc3c(c21)c(=O)n(-c1ccccc1)c1nncn31 (stereo not given)", "result": "> 100 µM"}
{"molecule": "CC1(C)CCc2c(sc3c2c(=O)n(-c2ccccc2)c2nncn32)C1", "result": "> 54.8 µM"}
{"molecule": "CC(C)(C)C1CCc2c(sc3c2c(=O)n(-c2ccc(C(F)(F)F)cc2)c2nncn32)C1 (stereo not given)", "result": "> 35.5 µM"}

Each of the following entries comes with a recorded value; kindly state EC50 for each.
1. CC1(C)Cc2c(sc3c2c(=O)n(-c2ccccc2)c2nncn32)C(C)(C)C1
2. CC(C)(C)C1CCc2c(sc3c2c(=O)n(-c2ccccc2)c2nnc(-c4ccccc4)n32)C1 (stereo not given)
3. COc1ccc(-n2c(=O)c3c4c(sc3n3cnnc23)CC(C(C)(C)C)CC4)cc1 (stereo not given)

> 9.09 µM
> 31.9 µM
> 39.1 µM

Would you be so kind as to report EC50 for each listed record?
1. CC(C)(C)C1CCc2c(sc3c2c(=O)n(-c2ccccc2)c2nnc(S)n32)C1 (stereo not given)
2. CCCC1CCc2c(sc3c2c(=O)n(-c2ccccc2)c2nncn32)C1 (stereo not given)
3. O=c1c2c3c(sc2n2cnnc2n1-c1ccccc1)CC(c1ccccc1)CC3 (stereo not given)
4. Cc1ccccc1-n1c(=O)c2c3c(sc2n2cnnc12)CC(C(C)(C)C)CC3 (stereo not given)

1: > 45.1 µM; 2: > 41 µM; 3: > 27.5 µM; 4: 9.22 µM

----------
assay-name: Selectivity index, ratio of CC50 for human HeLa cells to EC50 for human poliovirus 3 infected in human HeLa cells
Type: toxicity, cell-based
condition-details: read-out: Ratio CC50/EC50
readout-label: selectivity ratio

For CC(C)(C)C1CCc2c(sc3c2c(=O)n(-c2ccccc2)c2nncn32)C1 (stereo unspecified) , what is its reported selectivity ratio?
> 51.2

----------
Record form. Attribute: pEC50. Fill in for each entry.
Test system: Coxsackievirus B3
assay-name: Antiviral activity against human coxsackievirus B3 infected in human HeLa cells assessed as reduction in virus-induced cytopathicity incubated for 3 days by MTT assay
Type: functional, cell-based
condition-details: Enterovirus B, 72 h
pEC50: −log10 of the molar value.

{"molecule": "Cc1nnc2n(-c3ccccc3)c(=O)c3c4c(sc3n12)CC(C(C)(C)C)CC4 (stereo not drawn)", "readout-label": "pEC50", "result": "< 4.35"}

Please supply pEC50 for each of the following items, keeping them in order.
1. CC(C)(C)C1CCc2c(sc3c2c(=O)n(-c2ccccc2)c2nncn32)C1 (stereo not drawn)
2. Cc1cc(CCCOc2c(C)cc(-c3noc(C(F)(F)F)n3)cc2C)on1
3. CC1CCc2c(sc3c2c(=O)n(-c2ccccc2)c2nncn32)C1 (stereo not drawn)
4. CC(C)(C)C1CCc2c(sc3c2c(=O)n(-c2ccc(Br)cc2)c2nncn32)C1 (stereo not drawn)
5. CC(C)(C)C1CCc2c(sc3c2c(=O)n(-c2ccccc2Cl)c2nncn32)C1 (stereo not drawn)

[5.06, "< 4.37", "< 4.10", "< 4.52", 4.79]

I would be grateful if you could provide pEC50 for each of the following entries.
1. CC(C)(C)C1CCc2c(sc3c2c(=O)n(-c2ccc(Cl)cc2)c2nncn32)C1 (stereo not drawn)
2. Cc1ccc(-c2ccc(-n3c(=O)c4c5c(sc4n4cnnc34)CC(C(C)(C)C)CC5)cc2)cc1 (stereo not drawn)
3. CC(C)(C)C1CCc2c(sc3c2c(=O)n(-c2cccc(Cl)c2)c2nncn32)C1 (stereo not drawn)
4. CC(C)(C)C1CCc2c(sc3c2c(=O)n(-c2ccccc2)c2nnc(N)n32)C1 (stereo not drawn)
5. Cc1ccc(-n2c(=O)c3c4c(sc3n3cnnc23)CC(C(C)(C)C)CC4)cc1 (stereo not drawn)
6. CC(C)(C)C1CCc2c(sc3c2c(=O)n(-c2cccc(Br)c2)c2nncn32)C1 (stereo not drawn)
7. O=c1c2c3c(sc2n2cnnc2n1-c1ccccc1)CCCC3

["< 4.44", 4.33, "< 4.42", "< 4.34", 4.89, "< 4.48", "< 4.00"]

----------
assay-name: Cytotoxicity in human HeLa cells assessed as reduction in cell viability incubated for 3 days by MTT assay
Assay type: cell-based
Could you please report measured CC50 at 72 h for the items listed next?

// for each molecule in input: emit CC50 at 72 h
1. CC(C)(C)C1CCc2c(sc3c2c(=O)n(-c2ccccc2)c2nncn32)C1 (stereo not given)
2. Cc1ccc(-c2ccc(-n3c(=O)c4c5c(sc4n4cnnc34)CC(C(C)(C)C)CC5)cc2)cc1 (stereo not given)
3. CC(C)(C)C1CCc2c(sc3c2c(=O)n(-c2cccc(Cl)c2)c2nncn32)C1 (stereo not given)
4. CC(C)(C)C1CCc2c(sc3c2c(=O)n(-c2ccc(C(F)(F)F)cc2)c2nncn32)C1 (stereo not given)
5. CC(C)(C)C1CCc2c(sc3c2c(=O)n(-c2cccc(Br)c2)c2nncn32)C1 (stereo not given)
6. Cc1ccccc1-n1c(=O)c2c3c(sc2n2cnnc12)CC(C(C)(C)C)CC3 (stereo not given)
7. Cc1cc(CCCOc2c(C)cc(-c3noc(C(F)(F)F)n3)cc2C)on1

1: > 100 µM; 2: > 100 µM; 3: 38.3 µM; 4: 35.5 µM; 5: 32.9 µM; 6: 39.1 µM; 7: 42.8 µM
